- target system: hSTING (Homo sapiens, UniProt Q86WV6, G230A/H232R/R293Q/R71H)
- Sequence (Q86WV6 whole entry R71H/G230A/H232R/R293Q): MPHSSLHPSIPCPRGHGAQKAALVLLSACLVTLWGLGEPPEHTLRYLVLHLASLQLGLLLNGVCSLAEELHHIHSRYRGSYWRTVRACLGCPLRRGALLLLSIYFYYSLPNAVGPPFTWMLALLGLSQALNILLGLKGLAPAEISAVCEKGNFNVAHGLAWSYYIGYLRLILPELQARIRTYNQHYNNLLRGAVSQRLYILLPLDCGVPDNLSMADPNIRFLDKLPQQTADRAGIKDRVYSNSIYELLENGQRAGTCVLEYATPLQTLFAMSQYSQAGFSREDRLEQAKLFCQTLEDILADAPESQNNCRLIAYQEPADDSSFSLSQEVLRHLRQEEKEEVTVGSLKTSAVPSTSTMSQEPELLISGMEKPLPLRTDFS
- protocol: STING reporter assay (luciferase) in THP1-Dual KO-IFNAR2 cells stimulated with 2′3′cGAMP
- experimental setup: 15 μM 2′3′cGAMP transfected, 24 h, luciferase reporter activity
Would you mind telling me the reported EC50 of each entry?

Guide cases for EC50, answers given:
* C[C@H](C(=O)Nc1c[nH]c2ccc(-c3cnn(-c4ccc(C(F)(F)F)cc4)c3)cc12)N1CCCC1=O [Compound 156] | 1000 to 5000 nM
* O=C(CN1CCOC1=O)Nc1c[nH]c2ccc(-c3cnn(-c4ccc(C(F)(F)F)cc4)c3)cc12 [Compound 161] | 200 to 1000 nM
* O=C(Cc1ncc[nH]1)Nc1c[nH]c2ccc(-c3cnn(-c4ccc(C(F)(F)F)cc4)c3)cc12 [Compound 149] | 5000 to 100000 nM
* O=C(/C=C/c1ccc(OC(F)(F)F)cc1)Nc1c[nH]c2cc(F)c(F)cc12 [Compound 136] | 200 to 1000 nM
* O=C(Cc1ncc(F)cn1)Nc1c[nH]c2ccc(-c3cnn(-c4ccc(C(F)(F)F)cc4)c3)cc12 [Compound 145] | 200 to 1000 nM
* Cc1ccc(OC(C)(C)C(=O)Nc2c[nH]c3cc(F)c(F)cc23)nc1 [Compound 105] | 5000 to 100000 nM

Continue with the compound presented below.
# get_value(readout='EC50', item= O=C(CCc1nccs1)Nc1c[nH]c2ccc(-c3cnn(-c4ccc(C(F)(F)F)cc4)c3)cc12 [Compound 148] )
200 to 1000 nM

----------
- target system: hSTING (Homo sapiens, UniProt Q86WV6, G230A/H232R/R293Q/R71H)
- protocol: STING reporter assay (luciferase) in THP1-Dual KO-IFNAR2 cells stimulated with 2′3′cGAMP
- experimental setup: 15 μM 2′3′cGAMP transfected, 24 h, luciferase reporter activity
I'd appreciate it if you could supply EC50 values for the items below.

Please review the following examples before continuing.
• NC1(CC(=O)Nc2c[nH]c3ccc(-c4cnn(-c5ccc(C(F)(F)F)cc5)c4)cc23)CCCCC1 = 1 to 5 µM
• O=C(Nc1c[nH]c2cc(F)c(F)cc12)C1CN(Cc2ccccc2)CCO1 (centres unmarked) = 1 to 5 µM
• O=C(CCc1cncc(C(F)(F)F)c1)Nc1c[nH]c2cc(F)c(F)cc12 = 1 to 5 µM
• O=C(Nc1c[nH]c2cc(F)c(F)cc12)C1CC(Oc2ccccc2)C1 (centres unmarked) = 1 to 5 µM
• O=C(CCc1cnoc1)Nc1c[nH]c2ccc(-c3cnn(-c4ccc(C(F)(F)F)cc4)c3)cc12 = 0.2 to 1 µM

Below is a list of compounds. For each, state its recorded EC50.
1. O=C(CC1CC(F)(F)C1)Nc1c[nH]c2ccc(-c3cnn(-c4ccc(C(F)(F)F)cc4)c3)cc12
2. O=C(Cc1cnc(N2CCC(F)(F)CC2)c(Cl)c1)Nc1c[nH]c2ccc(Br)cc12
3. O=C(CCc1ccc(C(F)(F)F)nc1)Nc1c[nH]c2cc(F)c(F)cc12

["0.2 to 1 µM", "0.2 to 1 µM", "1 to 5 µM"]

----------
- target system: hSTING (Homo sapiens, UniProt Q86WV6, G230A/H232R/R293Q/R71H)
- Construct: host or cells: THP1-Dual KO-IFNAR2 cells
- protocol: STING reporter assay (luciferase) in THP1-Dual KO-IFNAR2 cells stimulated with 2′3′cGAMP
- Format: cell-based
- experimental setup: 15 μM 2′3′cGAMP transfected, 24 h, luciferase reporter activity
experimental readout: EC50

// known answers, use as guide
- C[C@H](NC1CCCCC1)C(=O)Nc1c[nH]c2cc(F)c(F)cc12: 5 to 100 µM
- Cc1nnc(CC(=O)Nc2c[nH]c3ccc(-c4cnn(-c5ccc(C(F)(F)F)cc5)c4)cc23)o1: 0.2 to 1 µM
- O=C(Nc1c[nH]c2cc(F)c(F)cc12)[C@H]1CCN(C(=O)OCc2ccccc2)C1: 5 to 100 µM
- Cc1nc(CC(=O)Nc2c[nH]c3ccc(-c4cnn(-c5ccc(C(F)(F)F)cc5)c4)cc23)n[nH]1: 1 to 5 µM
- O=C(Cn1cncn1)Nc1c[nH]c2ccc(-c3cnn(-c4ccc(C(F)(F)F)cc4)c3)cc12: 1 to 5 µM
- COc1ccc(/C=C(\C)C(=O)Nc2c[nH]c3cc(F)c(F)cc23)cc1: 0.2 to 1 µM
- O=C(CCn1cccn1)Nc1c[nH]c2ccc(-c3cnn(-c4ccc(C(F)(F)F)cc4)c3)cc12: 0.2 to 1 µM

Consider now this further compound.
Observed EC50 on hSTING (Homo sapiens, UniProt Q86WV6, G230A/H232R/R293Q/R71H) for `Cc1cc(CC(=O)Nc2c[nH]c3ccc(-c4cnn(-c5ccc(C(F)(F)F)cc5)c4)cc23)on1` , please.
0.2 to 1 µM

----------
Provide the reported EC50 of each item.
- target system: hSTING (Homo sapiens, UniProt Q86WV6, G230A/H232R/R293Q/R71H)
- protocol: STING reporter assay (luciferase) in THP1-Dual KO-IFNAR2 cells stimulated with 2′3′cGAMP
- experimental setup: 15 μM 2′3′cGAMP transfected, 24 h, luciferase reporter activity

Guide cases for EC50, answers given:
• CCOc1cccc(/C=C/C(=O)Nc2c[nH]c3cc(F)c(F)cc23)c1 [Compound 128] = 200 to 1000 nM
• O=C(Nc1c[nH]c2ccc(-c3cnn(-c4ccc(C(F)(F)F)cc4)c3)cc12)[C@@H](O)C1CCCCC1 [Compound 152] = 1000 to 5000 nM

For each entry beneath this line, provide reported EC50.
1. O=C(CCn1ccnc1)Nc1c[nH]c2ccc(-c3cnn(-c4ccc(C(F)(F)F)cc4)c3)cc12 [Compound 142]
2. COc1cccc(CCC(=O)Nc2c[nH]c3cc(F)c(F)cc23)n1 [Compound 108]

1: 200 to 1000 nM; 2: 5000 to 100000 nM

----------
- target system: hSTING (Homo sapiens, UniProt Q86WV6, G230A/H232R/R293Q/R71H)
- protocol: STING reporter assay (luciferase) in THP1-Dual KO-IFNAR2 cells stimulated with 2′3′cGAMP
- experimental setup: 15 μM 2′3′cGAMP transfected, 24 h, luciferase reporter activity
pEC50: −log10 of the molar value.
experimental readout: pEC50

* CCOc1ccc(CC(=O)Nc2c[nH]c3cc(F)c(F)cc23)cc1C(F)(F)F [Compound 103] | 5.30 to 6.00
* O=C(Cc1cccc(OC(F)F)c1)Nc1c[nH]c2cc(F)c(F)cc12 [Compound 127] | 4.00 to 5.30

Consider the additional molecule presented here.
Find the recorded pEC50 belonging to Cn1cnnc1CCC(=O)Nc1c[nH]c2ccc(-c3cnn(-c4ccc(C(F)(F)F)cc4)c3)cc12 [Compound 153] and report it.
5.30 to 6.00

----------
Kindly state EC50 for each of the entries shown.
- target system: hSTING (Homo sapiens, UniProt Q86WV6, G230A/H232R/R293Q/R71H)
- protocol: STING reporter assay (luciferase) in THP1-Dual KO-IFNAR2 cells stimulated with 2′3′cGAMP
- experimental setup: 15 μM 2′3′cGAMP transfected, 24 h, luciferase reporter activity
- Protocol: STING pathway activation by the compounds described herein was measured using THP1-Dual™ cells (KO-IFNAR2). […] 2 mL of solution A and 2 ml Solution B was mixed and incubated for 20 min at room temperature (RT). […] Luciferase reporter activity was then measured. EC50 values were calculated by using standard methods known in the art. […] Luciferase reporter activity was then measured. EC50 values were calculated by using standard methods known in the art.

- C/C(=C\c1ccccn1)C(=O)Nc1c[nH]c2cc(F)c(F)cc12: 1000 to 5000 nM
- COc1cccc(N2CC(C(=O)Nc3c[nH]c4cc(F)c(F)cc34)CC2=O)c1 (centres unmarked): 5000 to 100000 nM
- Cn1cc(CC(=O)Nc2c[nH]c3ccc(-c4cnn(-c5ccc(C(F)(F)F)cc5)c4)cc23)cn1: 200 to 1000 nM

Answer for every listed entry: what is its EC50? The entries follow.
1. O=C(CCc1ccc(OC(F)(F)F)cc1)Nc1c[nH]c2cc(F)c(F)cc12
2. Cc1cc(CC(=O)Nc2c[nH]c3cc(F)c(F)cc23)cnc1N1CCC(F)(F)CC1
3. O=C(Cc1ccc(OC(F)(F)F)cc1)Nc1c[nH]c2cc(F)c(F)cc12
4. N#Cc1cccc(/C=C/C(=O)Nc2c[nH]c3cc(F)c(F)cc23)c1

1: 200 to 1000 nM; 2: 1000 to 5000 nM; 3: 1000 to 5000 nM; 4: 200 to 1000 nM

// batch mode: one EC50 value per listed entry
1. O=C(Cc1nnn[nH]1)Nc1c[nH]c2ccc(-c3cnn(-c4ccc(C(F)(F)F)cc4)c3)cc12
2. COc1ccc(CC(=O)Nc2c[nH]c3cc(F)c(F)cc23)cc1C(F)(F)F
3. Cc1nc(CC(=O)Nc2c[nH]c3ccc(-c4cnn(-c5ccc(C(F)(F)F)cc5)c4)cc23)cs1

5000 to 100000 nM
5000 to 100000 nM
200 to 1000 nM

Give EC50 for all compounds that follow.
1. N#Cc1cc(CC(=O)Nc2c[nH]c3cc(F)c(F)cc23)ccn1
2. O=C(CCN1CCCC1=O)Nc1c[nH]c2ccc(-c3cnn(-c4ccc(C(F)(F)F)cc4)c3)cc12
3. O=C(Nc1c[nH]c2ccc(-c3cnn(-c4ccc(C(F)(F)F)cc4)c3)cc12)C(O)c1ccccc1 (centres unmarked)
4. Cc1noc(C)c1CC(=O)Nc1c[nH]c2ccc(-c3cnn(-c4ccc(C(F)(F)F)cc4)c3)cc12
5. O=C(CC1(O)CCC1)Nc1c[nH]c2ccc(-c3cnn(-c4ccc(C(F)(F)F)cc4)c3)cc12
6. O=C(CCn1cncn1)Nc1c[nH]c2ccc(-c3cnn(-c4ccc(C(F)(F)F)cc4)c3)cc12
7. COc1ccc(CCC(=O)Nc2c[nH]c3cc(F)c(F)cc23)cn1
8. O=C(Nc1c[nH]c2cc(F)c(F)cc12)C1CCN(S(=O)(=O)c2ccc(F)cc2)C1 (centres unmarked)

1. 1000 to 5000 nM
2. 200 to 1000 nM
3. 1000 to 5000 nM
4. 1000 to 5000 nM
5. 200 to 1000 nM
6. 200 to 1000 nM
7. 5000 to 100000 nM
8. 1000 to 5000 nM

Fill in EC50 for each of the 2 compounds listed.
1. COc1ccc(CC(C)(C)C(=O)Nc2c[nH]c3cc(F)c(F)cc23)cc1
2. CC(Oc1ccc(OC(F)(F)F)cc1)C(=O)Nc1c[nH]c2cc(F)c(F)cc12 (centres unmarked)

1. 5000 to 100000 nM
2. 1000 to 5000 nM
